Value source: patent US9181182B2

target: S1P1 human receptor (Homo sapiens (Human), UniProt P21453); assay: S1P1 [35S]-GTPgamaS binding assay (agonist activity); assay type: biochemical; details: S1P1, relative to reference agonist S1P
Sequence (P21453 whole entry): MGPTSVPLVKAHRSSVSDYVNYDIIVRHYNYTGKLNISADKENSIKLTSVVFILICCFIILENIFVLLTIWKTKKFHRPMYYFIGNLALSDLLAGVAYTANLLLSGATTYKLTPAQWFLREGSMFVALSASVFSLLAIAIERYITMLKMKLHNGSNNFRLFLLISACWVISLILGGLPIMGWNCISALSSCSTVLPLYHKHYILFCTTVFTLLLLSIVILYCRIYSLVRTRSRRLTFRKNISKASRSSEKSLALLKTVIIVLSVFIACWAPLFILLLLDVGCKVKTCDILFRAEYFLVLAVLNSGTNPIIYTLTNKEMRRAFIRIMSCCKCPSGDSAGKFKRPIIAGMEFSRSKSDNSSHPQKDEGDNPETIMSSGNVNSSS
In plain terms, low Efficacy (% of maximum), meaning strictly below 80%, gives class 1, and everything else gives class 0.

Illustrative cases are given below, each with its answer.
molecule | assigned-label
CCCCCCCCc1ccc2c(c1)CN(CC(N)(CO)CO)C2 | class 0
NC(CO)(CO)CN1CCc2cc(OCc3ccc(-c4ccccc4C(F)(F)F)cc3)ccc2C1 | class 0
NC(CO)(CO)CN1CCc2cc(OCc3cc4c(Cl)cc(Cl)cc4o3)ccc21 | class 0
CCOc1ccc(-c2nc(-c3cccc4c3CCN4CC(N)(CO)CO)no2)cc1OC | class 0
CCCCOc1ccc(-c2nc(-c3ccc4c(c3)CCN4CC(N)(CO)CO)no2)cc1Cl | class 1
CC(C)Oc1ccc(-c2nc(-c3ccc4c(c3)CCN4CC(N)(CO)CO)no2)cc1Cl | class 0
CCCCCCCCc1ccc2c(c1)CCN2CC(N)(CO)CO | class 1
CCCc1ccc(-c2nc(-c3cccc4c3CCN4CC(N)(CO)CO)no2)cc1CCC | class 0

Data request: Would you kindly verify if Efficacy (% of maximum) of CCCOc1ccc(-c2nc(-c3cccc4c3CCN4CC(N)(CO)CO)no2)cc1Cl is strictly less than 80%?
Data returned: class 0

Data request: Take the molecule CCCCCCCCc1ccc(CCC(N)(CO)CO)cc1 [FTY 720, reference compound] and say whether its Efficacy (% of maximum) is less than 80%.
Data returned: class 0

Data request: A record lists CCOc1ccc(-c2nc(-c3cccc4c3ccn4CC(N)(CO)CO)no2)cc1OCC . Is its Efficacy (% of maximum) below 80%?
Data returned: class 0
